System: NCI-H522 lung
Assay: NCI-60 one-dose screen, 48 h
Conditions: 10 µM
About 83,000 compounds went through this panel and 20% of them were active in at least one assay; those are over-represented in the sample as a whole. Calls of active or inactive are those of the source. The calls were made as follows: active = growth percent below 10; inactive = the rest.
Lab note: assign the record to one of 1 (active), 0 (inactive)

Example entries and their recorded answers appear below.
Query: Name the outcome recorded for "O=C(/C=C/c1ccco1)c1nc2ccccc2n1Cc1ccc(F)cc1" in the assay.
Reply: 0

Query: So what was the verdict on "O=C(NCCCCC(c1ccc(F)cc1)c1ccc(F)cc1)Nc1ccc([N+](=O)[O-])c(C(F)(F)F)c1" in this test?
Reply: 1

Query: Hey, what did the test say about "CC1=C(CCC=O)C2=C(C)C3(CC3)[C@@](C)(O)C(=O)C2=C1" ?
Reply: 1

Query: Recorded test outcome, item "O=C(/C=C/c1cccc(Br)c1)c1nc2ccccc2n1Cc1ccc(Br)cc1"
Reply: 1

Query: Which outcome was entered for the molecule "C=CCN=C([Se])NC(=O)c1ccc2c(c1)OCO2" in this test?
Reply: 0

More entries:
Query: Short answer needed: outcome of this test for "COC(=O)c1ccc(-n2cc(CCCN(CCNc3ccnc4cc(Cl)ccc34)C(=O)CCC(=O)O[C@@H]3O[C@@H]4OC5(C)CC[C@H]6[C@H](C)CC[C@@H]([C@H]3C)[C@@]46OO5)nn2)cc1" ?
Reply: 1

Query: Test call for this molecule, please: "O=C(/C=C/c1ccc(Cl)cc1)c1nc2ccccc2n1Cc1ccc(Br)cc1"
Reply: 0

Query: Outcome? "CC[C@]12C=CCN3CC[C@@]4(c5ccc(OC)cc5N(C)[C@H]4[C@@](O)(C(=O)OC)[C@@H]1OC(=O)CCCC[P+](c1ccc(C)cc1)(c1ccc(C)cc1)c1ccc(C)cc1)[C@@H]32"
Reply: 1

---

System: RXF 393 renal
Assay: NCI-60 one-dose screen, 48 h
Conditions: 10 µM
The panel holds about 83,000 compounds, 20% with a hit somewhere; the sample as a whole holds those more often. Calls of active or inactive are those of the source. How the source made its calls: active means growth percent below 10; inactive means the rest.
Assign a class; possible classes are active, inactive

Query: I would be grateful if you could indicate the recorded call for "COc1cc2cc(C(=O)N3C[C@@H](CCl)c4c3cc(OC(=O)N3CCN(C)[C@@H]5CSSC[C@H]53)c3ccccc43)[nH]c2c(OC)c1OC" .
Reply: active

Query: Identify the outcome logged in this assay for the compound shown: "CC[C@]12C=CCN3CC[C@@]4(c5ccc(OC)cc5N(C)[C@H]4[C@@](O)(C(=O)OC)[C@@H]1OC(=O)CCCC[P+](c1ccc(C)cc1)(c1ccc(C)cc1)c1ccc(C)cc1)[C@@H]32"
Reply: active

Query: Hi, do you know how "COc1cc(OC)c(S(=O)(=O)N(CCCl)CCCl)cc1C(=O)/C=C/c1ccc(C)cc1" came out in this test?
Reply: active

***
Query: Which outcome was entered for the compound "COc1ccc(/C=C/C(=O)c2nc3ccccc3n2Cc2ccc(Br)cc2)cc1" in this test?
Reply: inactive

Query: Please indicate how the test categorized "CC[C@]12C=CCN3CC[C@@]4(c5ccc(OC)cc5N(C)[C@H]4[C@@](O)(C(=O)OC)[C@@H]1OC(=O)CCCC[P+](c1ccc(OC)cc1)(c1ccc(OC)cc1)c1ccc(OC)cc1)[C@@H]32" .
Reply: active

Query: Call for entry "C#CCCCN(CCNc1ccnc2cc(Cl)ccc12)C(=O)CCC(=O)O[C@@H]1O[C@@H]2OC3(C)CC[C@H]4[C@H](C)CC[C@@H]([C@H]1C)[C@@]24OO3" :
Reply: inactive

Each recorded value in this set is attributed to PubChem BioAssay (NCI).
